# Tested on: biotinyl-Leu-oxazolone
# experiment-summary: self-aminoacylation, catalytic enhancement (BLO) (fold over background); higher = more active; k-Seq, kA / k0A0; sequences stand for … in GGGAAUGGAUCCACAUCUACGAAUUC…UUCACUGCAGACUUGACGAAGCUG
Fewer inactive variants are shown than the library holds.
Consider the following sequences; for each one, report its self-aminoacylation.
// return a plain number; no unit text

Consider the sequence AAUACCCUGGUCAUCGAGCGA [Fam2.1 aminoacylation ribozyme variant] and give its recorded self-aminoacylation.
1.55

Consider the sequence CUACUUCGAACAUUCGGUCUG [Fam1A.1 aminoacylation ribozyme variant] and give its recorded self-aminoacylation.
1.18

Consider the sequence GAGUUUGCUACUAGUCGCAAG [Fam3.1 aminoacylation ribozyme variant] and give its recorded self-aminoacylation.
1.66

Consider the sequence CUACUUAAAACAAUCGUUCUG [Fam1A.1 aminoacylation ribozyme variant] and give its recorded self-aminoacylation.
0.432

Consider the sequence CCACUCUUCAGGCAAUCGGUC [Fam1B.1 aminoacylation ribozyme variant] and give its recorded self-aminoacylation.
1.33

Consider the sequence CUGCUUCAAACAAUUGGUCUG [Fam1A.1 aminoacylation ribozyme variant] and give its recorded self-aminoacylation.
0.726

Consider the sequence AUGACCCUUGUCAUCGAGUGA [Fam2.1 aminoacylation ribozyme variant] and give its recorded self-aminoacylation.
6.36

Consider the sequence AUUCACCUAUGUCAUUGGGUG [Fam2.2 aminoacylation ribozyme variant] and give its recorded self-aminoacylation.
2.34

Consider the sequence AUUCACAUAGGUGAUCGGGUG [Fam2.2 aminoacylation ribozyme variant] and give its recorded self-aminoacylation.
3.56
